Data provenance: patent US4948782A

- System: Staphylococcus aureus FDA 209P
- measurementNotes: MIC, Staphylococcus aureus FDA 209P (SA(2))
- Assay type: cell-based
- settings: Staphylococcus aureus, FDA209P, Staphylococcus aureus FDA 209P; read-out: MIC SA (2)
quantityMeasured: MIC

stdin: Param item = CCC[N+](C)(C)[C@H]1C[C@@H](C)O[C@@H](O[C@@H]2[C@@H](C)[C@H](O[C@H]3C[C@@](C)(OC)[C@@H](O)[C@H](C)O3)[C@@H](C)C(=O)O[C@H](CC)[C@@](C)(O)[C@H](O)[C@@H](C)C3O[C@]2(C)CC3C)[C@@H]1O (some centres unmarked) ; retrieve measured MIC.
stdout: > 100 µg/mL

stdin: Same for CCC1OC(=O)C(C)C(OC2CC(C)(OC)C(O)C(C)O2)C(C)C(OC2OC(C)CC([N+](C)(C)CC3CC3)C2O)C2(C)CC(C)=C(O2)C(C)C(O)C1(C)O (centres unmarked)
stdout: > 100 µg/mL

stdin: Same for CCC1OC(=O)C(C)C(OC2CC(C)(OC)C(O)C(C)O2)C(C)C(OC2OC(C)CC([N+](C)(CC)CC)C2O)C2(C)CC(C)=C(O2)C(C)C(O)C1(C)O (centres unmarked)
stdout: > 100 µg/mL

stdin: Same for CCC1OC(=O)C(C)C(OC2CC(C)(OC)C(O)C(C)O2)C(C)C(OC2OC(C)CC(N(CC)CC)C2O)C2(C)CC(C)=C(O2)C(C)C(O)C1(C)O (centres unmarked)
stdout: > 100 µg/mL

stdin: Same for C#CC[N+](CC=C)(CC=C)C1CC(C)OC(OC2C(C)C(OC3CC(C)(OC)C(O)C(C)O3)C(C)C(=O)OC(CC)C(C)(O)C(O)C(C)C3=C(C)CC2(C)O3)C1O (centres unmarked)
stdout: 100 µg/mL

====

Please provide measured MIC for the entries that follow.
- System: Staphylococcus aureus FDA 209P
- measurementNotes: MIC, Staphylococcus aureus FDA 209P (SA(2))
- Assay type: cell-based
- settings: Staphylococcus aureus, FDA209P, Staphylococcus aureus FDA 209P; read-out: MIC SA (2)

stdin: Param item = C#CCN(C)C1CC(C)OC(OC2C(C)C(OC3CC(C)(OC)C(O)C(C)O3)C(C)C(=O)OC(CC)C(C)(O)C(O)C(C)C3=C(C)CC2(C)O3)C1O (centres unmarked) ; retrieve measured MIC.
stdout: > 100 µg/mL

stdin: Same for CCC1OC(=O)C(C)C(OC2CC(C)(OC)C(O)C(C)O2)C(C)C(OC2OC(C)CC([N+](C)(C)CC)C2O)C2(C)CC(C)=C(O2)C(C)C(O)C1(C)O (centres unmarked)
stdout: > 100 µg/mL

stdin: Same for C#CCNC1CC(C)OC(OC2C(C)C(OC3CC(C)(OC)C(O)C(C)O3)C(C)C(=O)OC(CC)C(C)(O)C(O)C(C)C3=C(C)CC2(C)O3)C1O (centres unmarked)
stdout: > 100 µg/mL

stdin: Same for CC[C@H]1OC(=O)[C@H](C)[C@@H](O[C@H]2C[C@@](C)(OC)[C@@H](O)[C@H](C)O2)[C@H](C)[C@@H](O[C@@H]2O[C@H](C)C[C@H]([N+](C)(C)CC)[C@H]2O)[C@@]2(C)CC(C)C3(O[C@@]1(C)[C@H](O)[C@H]3C)O2 (some centres unmarked)
stdout: > 100 µg/mL

stdin: Same for C#CC[N+](CC#C)(CC#C)C1CC(C)OC(OC2C(C)C(OC3CC(C)(OC)C(O)C(C)O3)C(C)C(=O)OC(CC)C(C)(O)C(O)C(C)C3=C(C)CC2(C)O3)C1O (centres unmarked)
stdout: 100 µg/mL
